- TESTED_ON: Fyn (Homo sapiens, UniProt P06241)
- Sequence (P06241 whole entry): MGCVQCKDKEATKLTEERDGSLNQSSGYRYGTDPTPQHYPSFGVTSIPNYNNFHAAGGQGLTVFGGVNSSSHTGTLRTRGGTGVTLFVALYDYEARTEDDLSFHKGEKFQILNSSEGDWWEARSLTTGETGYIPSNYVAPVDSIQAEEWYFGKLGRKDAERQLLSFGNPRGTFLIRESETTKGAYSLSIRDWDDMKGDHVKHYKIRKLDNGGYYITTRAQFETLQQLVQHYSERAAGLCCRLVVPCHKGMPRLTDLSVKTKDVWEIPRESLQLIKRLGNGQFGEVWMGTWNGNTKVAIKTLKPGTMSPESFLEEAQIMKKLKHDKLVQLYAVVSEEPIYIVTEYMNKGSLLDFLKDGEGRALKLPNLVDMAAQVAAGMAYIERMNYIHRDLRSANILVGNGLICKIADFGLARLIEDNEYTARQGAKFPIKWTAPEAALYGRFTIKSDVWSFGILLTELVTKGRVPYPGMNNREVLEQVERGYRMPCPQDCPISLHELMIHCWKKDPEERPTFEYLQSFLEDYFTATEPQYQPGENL
- ASSAY_DETAILS: Kinase inhibition, full range of concentrations
- Type: biochemical
- CONDITIONS_USED: 10 μM ATP, duplicate measurements
pIC50: −log10 of the molar value.
REPORTED_PROPERTY: pIC50

Annotate the compound CNc1cc(O)c2c(c1)/C=C/C[C@H](O)[C@H](O)C(=O)/C=C\[C@@H](C)[C@H](C)OC2=O with its measured pIC50. > 6.67

---

- TESTED_ON: c-Src (Homo sapiens)
- Sequence (P12931 whole entry): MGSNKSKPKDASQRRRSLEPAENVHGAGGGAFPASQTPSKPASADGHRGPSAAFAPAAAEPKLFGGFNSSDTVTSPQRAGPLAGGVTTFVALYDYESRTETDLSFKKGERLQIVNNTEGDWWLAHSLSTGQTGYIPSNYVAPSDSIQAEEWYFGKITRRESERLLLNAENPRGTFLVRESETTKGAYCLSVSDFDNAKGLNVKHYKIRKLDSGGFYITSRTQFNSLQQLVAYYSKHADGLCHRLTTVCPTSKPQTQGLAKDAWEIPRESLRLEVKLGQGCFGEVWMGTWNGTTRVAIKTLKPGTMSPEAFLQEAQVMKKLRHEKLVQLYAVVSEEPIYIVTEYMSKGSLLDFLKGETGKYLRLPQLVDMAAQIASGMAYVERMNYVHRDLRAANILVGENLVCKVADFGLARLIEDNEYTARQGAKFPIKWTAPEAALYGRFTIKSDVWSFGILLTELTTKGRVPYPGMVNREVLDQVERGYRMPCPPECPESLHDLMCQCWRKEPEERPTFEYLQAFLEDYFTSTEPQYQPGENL
pIC50: −log10 of the molar value.
REPORTED_PROPERTY: pIC50

Please respond with reported pIC50 (system c-Src (Homo sapiens)) for CNc1cc(O)c2c(c1)/C=C/C[C@H](O)[C@H](O)C(=O)/C=C\[C@@H](C)[C@H](C)OC2=O . > 6.67
